src = patent US20260242478A1

Molecular target: T1, Anti-PSMA Fab (biotinylated (site not stated))
T1 construct: Biotinylated PSMA Fab captured on neutravidin plates in the phage ELISA; also called 006 PSMA Fab
Experiment: clonal phage ELISA on captured biotinylated PSMA Fab, anti-M13 HRP detection
property_label: Phage binding ELISA signal, Anti-PSMA Fab
Write the value as a bare number.

In [3]: df
Out[3]:
                        binder  reported_measurement
0  SYQLCKPEWMCHGW [Phage-3982]                 0.715
1  MTDRCKPEWMCFGF [Phage-3989]                 0.677
2  VVVQCIPEWMCNGF [Phage-3981]                 0.729

*Q* Need Phage binding ELISA signal, Anti-PSMA Fab of VENLCRPSWMCEGF [Phage-3985] , thanks.
*A* 0.696

*Q* Subsequent entry: IAVKCMPAWMCVGI [Phage-3993]
*A* 0.632

*Q* Subsequent entry: VFKMCVPMWMCQVS [Phage-3992]
*A* 0.635

*Q* Subsequent entry: LLIVCKPPWMCAGS [Phage-3990]
*A* 0.666

*Q* Subsequent entry: NGPMCVPQWMCDGT [Phage-3986]
*A* 0.691
